- ASSAY_EXPLANATION: Cytotoxicity against human […] cells
- Format: cell-based
Quick reference for log10(GI50) among some compounds
MEASURED_PARAMETER: log10(GI50) (log10 of the value in µM)

{"columns": ["COMPOUND", "log10(GI50)"],
 "data": [
  ["NCCCCCCCCCn1c2c(c3ccccc3c1=O)C(=O)c1ccccc1-2", 0.98],
  ["CC[C@@]1(O)C(=O)OCc2c1cc1n(c2=O)Cc2cc3ccccc3nc2-1 [CAMPTOTHECIN]", -1.40],
  ["NCCCCCCCCn1c2c(c3ccccc3c1=O)C(=O)c1ccccc1-2", 0.75],
  ["NCCCCCCn1c2c(c3ccccc3c1=O)C(=O)c1ccccc1-2", 0.31],
  ["O=C1c2ccccc2-c2c1c1ccccc1c(=O)n2CCc1cccnc1", 0.66],
  ["COc1cc2c3c(n(CCCNCCCNCCCN)c(=O)c2cc1OC)-c1cc2c(cc1C3=O)OCO2", 1.83],
  ["COc1cc2c3c(n(CCCNCCNCCCN)c(=O)c2cc1OC)-c1cc2c(cc1C3=O)OCO2", 0.53]
]}

* * *

- ASSAY_EXPLANATION: Cytotoxicity against human UACC62 cells
- Assay type: cell-based
- APPLIED_CONDITIONS: UACC-62 cells
MEASURED_PARAMETER: log10(GI50) (log10 of the value in µM)

{"columns": ["STRUCTURE", "log10(GI50)"],
 "data": [
  ["NCCCn1c2c(c3ccccc3c1=O)C(=O)c1ccccc1-2", -0.59],
  ["O=C1c2ccccc2-c2c1c1ccccc1c(=O)n2Cc1cccnc1", 0.94],
  ["NCCCCn1c2c(c3ccccc3c1=O)C(=O)c1ccccc1-2", -1.30],
  ["O=C1c2ccccc2-c2c1c1ccccc1c(=O)n2CCc1ccccn1", 1.44],
  ["NCCCCCCCCCCn1c2c(c3ccccc3c1=O)C(=O)c1ccccc1-2", 1.14]
]}

* * *

- ASSAY_EXPLANATION: Cytotoxicity against human DU145 cells
- Assay type: cell-based
- APPLIED_CONDITIONS: DU-145 cells

{"columns": ["STRUCTURE", "RESULT_UNITS", "RELATIONAL_OPERATOR", "GI50"],
 "data": [
  ["NCCCCCCCn1c2c(c3ccccc3c1=O)C(=O)c1ccccc1-2", "µM", "=", 0.832],
  ["CC(C)(C)OC(=O)NCCCCCCCCCCCCn1c2c(c3ccccc3c1=O)C(=O)c1ccccc1-2", "µM", "=", 91.2],
  ["COc1cc2c3c(n(CCCNCCNCCCN)c(=O)c2cc1OC)-c1cc2c(cc1C3=O)OCO2", "µM", "=", 4.6],
  ["NCCCCCn1c2c(c3ccccc3c1=O)C(=O)c1ccccc1-2", "µM", "=", 0.347],
  ["CC(C)(C)OC(=O)NCCCCCCCCCCn1c2c(c3ccccc3c1=O)C(=O)c1ccccc1-2", "µM", "=", 97.7],
  ["COc1cc2c3c(n(CCCNCCCNCCN)c(=O)c2cc1OC)-c1cc2c(cc1C3=O)OCO2", "µM", "=", 52],
  ["O=C1c2ccccc2-c2c1c1ccccc1c(=O)n2CCc1cccnc1", "µM", "=", 81.3],
  ["COc1cc2c3c(n(CCCNCCNCCN)c(=O)c2cc1OC)-c1cc2c(cc1C3=O)OCO2", "µM", "=", 1.2],
  ["NCCCCCCCCCCCCn1c2c(c3ccccc3c1=O)C(=O)c1ccccc1-2", "µM", "=", 19.1],
  ["NCCCCCCCCn1c2c(c3ccccc3c1=O)C(=O)c1ccccc1-2", "µM", "=", 3.39],
  ["CC(C)(C)OC(=O)NCCCCCCCCCn1c2c(c3ccccc3c1=O)C(=O)c1ccccc1-2", "µM", ">", 100],
  ["Nn1c2c(c3ccccc3c1=O)C(=O)c1ccccc1-2", "µM", ">", 50.1],
  ["O=C1c2ccccc2-c2c1c1ccccc1c(=O)n2Cc1ccccn1", "µM", "=", 13.5],
  ["NCCCCCCCCCCn1c2c(c3ccccc3c1=O)C(=O)c1ccccc1-2", "µM", "=", 3.47],
  ["COc1cc2c3c(n(CCCNCCCNCCCN)c(=O)c2cc1OC)-c1cc2c(cc1C3=O)OCO2", "µM", ">", 100],
  ["CC(C)(C)OC(=O)NCCCCCCCn1c2c(c3ccccc3c1=O)C(=O)c1ccccc1-2", "µM", "=", 31.6],
  ["CC(C)(C)OC(=O)NCCCCCCCCCCCn1c2c(c3ccccc3c1=O)C(=O)c1ccccc1-2", "µM", "=", 91.2],
  ["NCCCn1c2c(c3ccccc3c1=O)C(=O)c1ccccc1-2", "µM", "=", 0.22],
  ["O=C1c2ccccc2-c2c1c1ccccc1c(=O)n2Cc1cccnc1", "µM", "=", 13.8],
  ["O=C1c2ccccc2-c2c1c1ccccc1c(=O)n2CCc1ccccn1", "µM", "=", 74.1],
  ["NCCCCn1c2c(c3ccccc3c1=O)C(=O)c1ccccc1-2", "µM", "=", 0.01]
]}
